Reported mIL11 - average signal values follow for various binders
Target: T1, Mouse IL-11 (mouse, UniProt P47873 22-199, limits assumed)
T1 construct: also called murine IL-11; recombinant murine IL-11
T1 sequence (looked up): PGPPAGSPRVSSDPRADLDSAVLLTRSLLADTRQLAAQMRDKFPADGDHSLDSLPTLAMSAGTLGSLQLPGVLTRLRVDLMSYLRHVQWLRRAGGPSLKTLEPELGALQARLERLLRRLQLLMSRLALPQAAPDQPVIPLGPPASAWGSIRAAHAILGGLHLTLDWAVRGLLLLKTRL
Assay: ELISA
// keep it numeric: no unit symbol after the value

| binder | valueReported |
| --- | --- |
| YU100-D02 (antibody) QVRLVQSGGGVVQPGRSLRLSCAASGFTFSSYGMHWVRQAPGKGLEWVAVISYDGSNKYYADSVKGRFTISRDNSKNTLYLQMNSLRAEDTAVYYCAKIGATDPLDYWGQGTLVTVSSGSASAPKLEEGEFSEARVQSALTQPRSVSGSPGQSVTISCTGTSGDVGTYNYVSWYQQHPGKAPKLMIFDVSKRPSGVPDRFSGSKSGNTASLTISGLQAEDEADYYCNSYAGSYTWVFGGGTKLTVLGQPKAAPSVTLFPPSS | 0.346 |

We now examine a further binder.
Entry YU112-H02 (antibody) QVQLVESGGGVVQPGRSLRLSCAASGFTFSSYGMHWVRQAPGKGLEWVAVISYDGSNKYYADSVKGRFTISRDNSKNTLYLQMNSLRAEDTAVYYCAKLSGPNGVDYWGQGTLVTVSSGSASAPKLEEGEFSEARVQPVLTQPRSVSGSPGQSVTISCTGTSSDVGGYNYVSWYQQHPGKAPKVMIYDVSKRPSGVPDRFSGSKSGNTASLTISGLQAEDEADYYCCSYAGSYTWVFGGGTKLTVL : reported mIL11 - average signal = ?
0.785
